Reference source: PubChem BioAssay (NCI)

For each of the molecules below, state its growth inhibition.
Procedure text: NCI Yeast Anticancer Drug Screen. Data for the bub3 strain (AID 167)
Applied conditions: S. cerevisiae bub3 mutant strain, at 50.0 µM (retest, dose inferred, filed as 5.0), stronger effect = higher value
This is part of a sample that, as a whole, favours compounds with a hit. Of some 79,000 tested, about 15% had one in any assay.
Numbers only, in %.

## Task Give the reported growth inhibition for this molecule. O=C1CCCCC1Sc1ccc(Cl)cc1 (centres undefined)
## Result 96

Batch: growth inhibition for all items listed.
1. CCCC(=O)Nc1cc([N+](=O)[O-])ccc1O
2. C/C(=N/NC(=S)Nc1ccc([N+](=O)[O-])cc1)c1cccc(/C(C)=N\NC(=S)Nc2ccc([N+](=O)[O-])cc2)n1
3. Cc1ccc(NC(=O)CSC(N)=O)cc1C

## Result
1: 97; 2: 94; 3: 69
